Tested on: MDA-MB-468 breast
Test: NCI tumour cell line growth inhibition, 48 h; in the data active = GI50 below about 0.43 µM; inactive = the rest
Bench note: report the call from active, inactive

Illustrative cases are given below, each with its answer.
In [3]: df
Out[3]:
                              smiles_record  class_assignment
0  COC(=O)/C=C1/SC(=Nc2cccc(Cl)c2)N(CCc2c[nH]c3ccc(O)cc23)C1=O          inactive
1  CCC(CC)n1cnc2c(-c3cnc(N)cn3)nc(N3CC4CCC(C3)O4)nc21            active
2  COc1ccc(C(C)=C(c2ccc(OCCN3CCCCCC3)cc2)c2ccc(OCCN3CCCCCC3)cc2)cc1          inactive
3        CCOC(=O)C(=Cc1ccc(C#N)cc1)C(=O)OCC          inactive

Query compound follows.
Dear all, I need the recorded test outcome for `COc1cc(CCC[P+](c2ccccc2)(c2ccccc2)c2ccccc2)c(OC)c2c1OCO2` , thank you. active

---

Tested on: MDA-MB-468 breast
Experiment: NCI tumour cell line growth inhibition, 48 h; in the data active means GI50 below about 0.43 µM; inactive means the rest
Bench note: report the call from active, inactive

Illustrative cases are given below, each with its answer.
>>> print(df.to_string())
                                   compound  class_assignment
0  COc1ccc(Nc2nc(NCCNc3ccnc4cc(Cl)ccc34)nc(N3CCOCC3)n2)cc1          inactive
1               CN(C)c1ccc(/C=N/NC(N)=S)nc1          inactive
2  Cc1ccc2c(C(C[N+](=O)[O-])c3ccccc3)c(-c3ccccc3)[nH]c2c1 (configuration not stated)          inactive
3  C#CCN(C)CCCOc1ccc(N(CC)C(=O)c2cc(C(C)C)c(O)cc2O)cc1Cl            active
4  COc1ccc2c(c1)c(-c1nc(-c3cn(C)c4ccncc34)cs1)cn2C          inactive

Dear all, I need the recorded test outcome for `C=C(C)[C@@H]1CC[C@]2(CO)CC[C@]3(C)[C@H](CC[C@@H]4[C@@]5(C)CCCNC(C)(C)[C@@H]5CC[C@]43C)[C@@H]12` , thank you. inactive

Dear all, I need the recorded test outcome for `CCOc1ccc(/C=N/NC(=O)Cn2nc(Cc3ccc(OC)cc3)c3onc(C)c3c2=O)cc1` , thank you. inactive
